Provenance of the data: ChEMBL document CHEMBL1124252

pA2 for assorted molecules
# experimental_target: Adrenergic receptor alpha-2 (Rattus norvegicus, UniProt P22086+P19328+P22909)
# protocol_notes: Alpha-2 adrenergic receptor blocking activity against clonidine-induced depression of the twitch response in prostatic portion of rat vas deferens
# Type: tissue-based
measured_endpoint: pA2

                                    molecule                       experimental_target  measured_endpoint  readout_value
 0       COc1cccc(OC)c1OCCNCc1cc2ccccc2[nH]1  Adrenergic receptor alpha-2 (Rattus norvegicus, UniProt P22086+P19328+P22909)                pA2           6.04
 1         COc1cccc(OC)c1OCCNCc1ccc2ccccc2c1  Adrenergic receptor alpha-2 (Rattus norvegicus, UniProt P22086+P19328+P22909)                pA2            6.4
 2  COc1cccc(OC)c1OCCNC[C@@H]1COc2ccccc2[C@@H]1O  Adrenergic receptor alpha-2 (Rattus norvegicus, UniProt P22086+P19328+P22909)                pA2            6.1
 3  COc1cccc(OC)c1OCCNC[C@@H]1C[S@+]([O-])c2ccccc2O1 (relative stereo)  Adrenergic receptor alpha-2 (Rattus norvegicus, UniProt P22086+P19328+P22909)                pA2           6.24
 4    COc1cccc(OC)c1OCCNC[C@@H]1COc2ccccc2C1  Adrenergic receptor alpha-2 (Rattus norvegicus, UniProt P22086+P19328+P22909)                pA2           6.28
 5  COc1cccc(OC)c1OCCNC[C@@H]1CS(=O)(=O)c2ccccc2O1  Adrenergic receptor alpha-2 (Rattus norvegicus, UniProt P22086+P19328+P22909)                pA2            5.8
 6    COc1cccc(OC)c1OCCNC[C@@H]1CSc2ccccc2O1  Adrenergic receptor alpha-2 (Rattus norvegicus, UniProt P22086+P19328+P22909)                pA2           6.15
 7    COc1cccc(OC)c1OCCNC[C@@H]1CCc2ccccc2O1  Adrenergic receptor alpha-2 (Rattus norvegicus, UniProt P22086+P19328+P22909)                pA2           7.05
 8  COc1cccc(OC)c1OCCNCC1COc2ccccc2O1 (stereo not given)  Adrenergic receptor alpha-2 (Rattus norvegicus, UniProt P22086+P19328+P22909)                pA2           6.63
 9  COc1cccc(OC)c1OCCNC[C@@H]1C[S@@+]([O-])c2ccccc2O1 (relative stereo)  Adrenergic receptor alpha-2 (Rattus norvegicus, UniProt P22086+P19328+P22909)                pA2           6.24
10    COc1cccc(OC)c1OCCNC[C@@H]1COc2ccccc2S1  Adrenergic receptor alpha-2 (Rattus norvegicus, UniProt P22086+P19328+P22909)                pA2           6.09
11  COc1cccc(OC)c1OCCNC[C@@H]1COc2ccccc2C1=O  Adrenergic receptor alpha-2 (Rattus norvegicus, UniProt P22086+P19328+P22909)                pA2           6.52
12  COc1cccc(OC)c1OCCNC[C@@H]1CSc2ccccc2C1=O  Adrenergic receptor alpha-2 (Rattus norvegicus, UniProt P22086+P19328+P22909)                pA2           6.53
13         COc1cccc(OC)c1OCCNCc1cccc2ccccc12  Adrenergic receptor alpha-2 (Rattus norvegicus, UniProt P22086+P19328+P22909)                pA2           6.41
14  COc1cccc(OC)c1OCCNC[C@@H]1COc2ccccc2[C@H]1O  Adrenergic receptor alpha-2 (Rattus norvegicus, UniProt P22086+P19328+P22909)                pA2           6.09
